- SUBJECT_OF_TEST: MEK1^CA (human GST-MEK1, constitutively active, Ser218Asp and Ser222Asp) (Homo sapiens, UniProt Q02750, S218D/S222D)
- Construct: GST; made in house; host or cells: Escherichia coli
- Sequence (Q02750 whole entry S218D/S222D): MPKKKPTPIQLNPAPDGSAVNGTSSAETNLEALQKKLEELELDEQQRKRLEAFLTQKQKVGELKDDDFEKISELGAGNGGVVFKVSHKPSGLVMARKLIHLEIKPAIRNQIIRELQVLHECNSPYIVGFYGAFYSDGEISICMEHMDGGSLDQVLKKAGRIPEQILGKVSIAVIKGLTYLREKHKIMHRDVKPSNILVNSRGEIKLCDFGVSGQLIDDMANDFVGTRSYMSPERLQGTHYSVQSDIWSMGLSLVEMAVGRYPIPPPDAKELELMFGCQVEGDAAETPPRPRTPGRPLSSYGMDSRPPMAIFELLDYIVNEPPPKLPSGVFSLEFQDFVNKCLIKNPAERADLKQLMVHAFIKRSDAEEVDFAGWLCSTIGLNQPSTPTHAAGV
- ASSAY_REMARKS: MEK1 enzymatic activity assay (MEK1^CA / ERK2 / MBP, [γ-33P]ATP incorporation)
- Type: biochemical
- CONDITIONS: Table 1, compounds of formula I; read-out: Avg IC50
pIC50: −log10 of the molar value.
Recorded pIC50 by entry

Worked cases, pIC50 given:
[
  {
    "COMPOUND": "Cc1cc(Oc2cccc(C(F)(F)F)c2)ccc1Nc1snc(O)c1C(=N)NC(CO)C(C)C (centres unmarked)",
    "pIC50": "6.30 to 7.00"
  },
  {
    "COMPOUND": "COCCNC(=N)c1c(O)nsc1Nc1ccc(Oc2cccc(F)c2F)cc1C",
    "pIC50": "7.00 to 9.00"
  },
  {
    "COMPOUND": "N=C(NCc1cccc2ccccc12)c1c(O)nsc1Nc1ccc(Oc2ccccc2)cc1",
    "pIC50": "7.00 to 9.00"
  },
  {
    "COMPOUND": "CC(C)NC(=N)c1c(O)nsc1Nc1ccc(Oc2cc(F)ccc2F)cc1",
    "pIC50": "7.00 to 9.00"
  },
  {
    "COMPOUND": "Cc1ccc(Nc2snc(O)c2C(=N)NCCN2CCOCC2)cc1",
    "pIC50": "6.30 to 7.00"
  }
]

Could you now consider this next compound?
Query: pIC50; subject: "CC(C)NC(=N)c1c(O)nsc1Nc1ccc(Oc2cccc(C(F)(F)F)c2Cl)c(Cl)c1"
7.00 to 9.00
